These entries and their values trace back to ChEMBL document CHEMBL4765334.

System: Human immunodeficiency virus 1
assay.overview: Binding affinity to covalently-crosslinked hexameric HIV1 capsid protein A14C/E45C/W184A/M185A mutant expressed in Escherichia coli BL21(DE3)RIL assessed as change in melting temperature at 20 uM incubated for 30 mins by thermal shift dye based fluorescence analysis

compound.string: CN(C(=O)[C@H](Cc1ccccc1)NC(=O)Cc1c[nH]c2ccccc12)c1cccc(F)c1
reading.unit: °C
ΔTm: 2.5
//
compound.string: CN(C(=O)[C@H](Cc1ccccc1)NC(=O)Cc1c[nH]c2ccccc12)c1cccnc1
reading.unit: °C
ΔTm: -0.8
//
compound.string: O=C(Cc1c[nH]c2ccccc12)N[C@@H](Cc1ccccc1)C(=O)Nc1cccc(-c2nnn[nH]2)c1
reading.unit: °C
ΔTm: -0.7
//
compound.string: Cc1cc(N(C)C(=O)[C@H](Cc2ccccc2)NC(=O)Cc2c(C)[nH]c3ccccc23)n[nH]1
reading.unit: °C
ΔTm: 0
//
compound.string: CCn1c(C)c(CC(=O)N[C@@H](Cc2ccccc2)C(=O)N(C)c2cccc(F)c2)c2ccccc21
reading.unit: °C
ΔTm: 10.8
//
compound.string: COc1ccc(N(C)C(=O)[C@H](Cc2ccccc2)NC(=O)Cc2c(C)[nH]c3ccccc23)cc1
reading.unit: °C
ΔTm: 8.4
//
compound.string: Cc1[nH]c2ccccc2c1CC(=O)N[C@@H](Cc1ccccc1)C(=O)Nc1ccccc1
reading.unit: °C
ΔTm: 0.7
//
compound.string: Cc1[nH]c2ccccc2c1CC(=O)N[C@@H](Cc1ccccc1)C(=O)Nc1cccnn1
reading.unit: °C
ΔTm: 0
//
compound.string: CN(C(=O)[C@H](Cc1ccccc1)NC(=O)Cc1c[nH]c2ccccc12)c1cccc(Cl)c1
reading.unit: °C
ΔTm: 4.9

====

assay.overview: Metabolic stability at phase 1 in human liver microsomes assessed as half life at 1 uM by LC-MS/MS analysis
Format: ADME, Microsome

compound.string: CN(C(=O)[C@H](Cc1ccccc1)NC(=O)Cc1c[nH]c2ccccc12)c1ccc(Cl)nc1
t1/2, min: 2.1
//
compound.string: COc1ccc(N(C)C(=O)[C@H](Cc2ccccc2)NC(=O)Cc2c[nH]c3ccccc23)cc1
t1/2, min: 1.6
//
compound.string: Cc1ccc(N(C)C(=O)[C@H](Cc2ccccc2)NC(=O)Cc2c(C)[nH]c3ccccc23)cc1
t1/2, min: 0.9
//
compound.string: CCn1cc(CC(=O)N[C@@H](Cc2ccccc2)C(=O)N(C)c2ccccc2)c2ccccc21
t1/2, min: 0.9
//
compound.string: CN(C(=O)[C@H](Cc1ccccc1)NC(=O)Cc1c[nH]c2ccccc12)c1ccc(Br)cc1
t1/2, min: 2.1
//
compound.string: CCn1c(C)c(CC(=O)N[C@@H](Cc2ccccc2)C(=O)N(C)c2ccc(F)cc2)c2ccccc21
t1/2, min: 1
//
compound.string: CCN(C(=O)[C@H](Cc1ccccc1)NC(=O)Cc1c(C)[nH]c2ccccc12)c1ccccc1
t1/2, min: 0.9
//
compound.string: CCn1c(C)c(CC(=O)N[C@@H](Cc2ccccc2)C(=O)N(C)c2ccccc2)c2ccccc21
t1/2, min: 1
//
compound.string: Cc1c(CC(=O)N[C@@H](Cc2ccccc2)C(=O)N(C)c2ccccc2)c2ccccc2n1C(C)C
t1/2, min: 0.6
//
compound.string: CCn1cc(CC(=O)N[C@@H](Cc2ccccc2)C(=O)N(C)c2ccc(F)cc2)c2ccccc21
t1/2, min: 1.3
//
compound.string: CC(C)n1cc(CC(=O)N[C@@H](Cc2ccccc2)C(=O)N(C)c2ccccc2)c2ccccc21
t1/2, min: 0.9
//
compound.string: Cc1[nH]c2ccccc2c1CC(=O)N[C@@H](Cc1ccccc1)C(=O)N(C)c1ccc(F)cc1
t1/2, min: 1
//
compound.string: Cc1ccc(N(C)C(=O)[C@H](Cc2ccccc2)NC(=O)Cc2c[nH]c3ccccc23)cc1
t1/2, min: 1.5
//
compound.string: Cc1c(CC(=O)N[C@@H](Cc2ccccc2)C(=O)N(C)c2ccc(F)cc2)c2ccccc2n1C(C)C
t1/2, min: 0.6
//
compound.string: CN(C(=O)[C@H](Cc1ccccc1)NC(=O)Cc1c[nH]c2ccccc12)c1cc(F)cc(F)c1
t1/2, min: 0.9
//
compound.string: CC(C)n1cc(CC(=O)N[C@@H](Cc2ccccc2)C(=O)N(C)c2ccc(F)cc2)c2ccccc21
t1/2, min: 0.9
//
compound.string: COc1ccc(N(C)C(=O)[C@H](Cc2ccccc2)NC(=O)Cc2c(C)[nH]c3ccccc23)cc1
t1/2, min: 1
//
compound.string: CN(C(=O)[C@H](Cc1ccccc1)NC(=O)Cc1c[nH]c2ccccc12)c1ccc(F)cc1
t1/2, min: 1.3
